Biological target: Tyrosine-protein kinase SYK (Homo sapiens)
readoutLabel: IC50

Fill in: IC50 of O=C(Nc1ccccc1)Nc1ccccc1 is ___
> 660 µM

* * *

Target: 3-phosphoinositide-dependent protein kinase 1 (Homo sapiens) (UniProt O15530)
Sequence (O15530 whole entry, looked up): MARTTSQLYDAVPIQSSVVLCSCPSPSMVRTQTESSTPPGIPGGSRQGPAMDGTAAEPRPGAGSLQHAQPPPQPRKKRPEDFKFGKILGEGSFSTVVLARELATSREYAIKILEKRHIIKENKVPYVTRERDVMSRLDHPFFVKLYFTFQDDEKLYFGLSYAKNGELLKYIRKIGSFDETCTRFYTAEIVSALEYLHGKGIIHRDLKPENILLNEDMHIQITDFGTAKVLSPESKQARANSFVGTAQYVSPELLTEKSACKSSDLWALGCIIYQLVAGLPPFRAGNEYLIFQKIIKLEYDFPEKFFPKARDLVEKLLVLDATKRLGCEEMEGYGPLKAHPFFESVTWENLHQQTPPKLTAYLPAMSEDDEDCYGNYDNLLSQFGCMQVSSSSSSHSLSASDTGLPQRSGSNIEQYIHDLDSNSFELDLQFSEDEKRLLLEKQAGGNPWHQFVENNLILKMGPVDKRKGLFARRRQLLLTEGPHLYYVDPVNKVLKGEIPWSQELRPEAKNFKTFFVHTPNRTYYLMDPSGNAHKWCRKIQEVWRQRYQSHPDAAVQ
Experiment: Inhibition of PDK1 expressed in Escherichia coli or baculovirus-infected insect cells using gamma-[33P]ATP at 400 uM by scintillation proximity assay
readoutLabel: inhibition (%)
Give bare numbers, in %.

Consider the reported inhibition for these compounds:
| compound | inhibition (%) |
| --- | --- |
| c1ccc2[nH]ncc2c1 [INDAZOLE] | 25 |
| Nc1[nH]cnc2ncnc1-2 | 77 |
| Cc1ccc(NC(=O)Nc2cccc(C(F)(F)F)c2)cc1 | 15 |
| O=C(Nc1ccccc1)Nc1ccccc1 | 20 |
| Nc1n[nH]c2ncccc12 | 40 |
| Nc1[nH]nc2ccccc12 | 53 |
| Cc1ccc(NC(=O)Nc2cc(C(C)(C)C)nn2-c2ccccc2)cc1 | 15 |

What value of inhibition has been recorded for this entry: Nc1ccc2ncc(-c3ccccc3)n2n1
66

* * *

Target: UniProt:Q13464
Sequence (Q13464 2-1354 limits assumed): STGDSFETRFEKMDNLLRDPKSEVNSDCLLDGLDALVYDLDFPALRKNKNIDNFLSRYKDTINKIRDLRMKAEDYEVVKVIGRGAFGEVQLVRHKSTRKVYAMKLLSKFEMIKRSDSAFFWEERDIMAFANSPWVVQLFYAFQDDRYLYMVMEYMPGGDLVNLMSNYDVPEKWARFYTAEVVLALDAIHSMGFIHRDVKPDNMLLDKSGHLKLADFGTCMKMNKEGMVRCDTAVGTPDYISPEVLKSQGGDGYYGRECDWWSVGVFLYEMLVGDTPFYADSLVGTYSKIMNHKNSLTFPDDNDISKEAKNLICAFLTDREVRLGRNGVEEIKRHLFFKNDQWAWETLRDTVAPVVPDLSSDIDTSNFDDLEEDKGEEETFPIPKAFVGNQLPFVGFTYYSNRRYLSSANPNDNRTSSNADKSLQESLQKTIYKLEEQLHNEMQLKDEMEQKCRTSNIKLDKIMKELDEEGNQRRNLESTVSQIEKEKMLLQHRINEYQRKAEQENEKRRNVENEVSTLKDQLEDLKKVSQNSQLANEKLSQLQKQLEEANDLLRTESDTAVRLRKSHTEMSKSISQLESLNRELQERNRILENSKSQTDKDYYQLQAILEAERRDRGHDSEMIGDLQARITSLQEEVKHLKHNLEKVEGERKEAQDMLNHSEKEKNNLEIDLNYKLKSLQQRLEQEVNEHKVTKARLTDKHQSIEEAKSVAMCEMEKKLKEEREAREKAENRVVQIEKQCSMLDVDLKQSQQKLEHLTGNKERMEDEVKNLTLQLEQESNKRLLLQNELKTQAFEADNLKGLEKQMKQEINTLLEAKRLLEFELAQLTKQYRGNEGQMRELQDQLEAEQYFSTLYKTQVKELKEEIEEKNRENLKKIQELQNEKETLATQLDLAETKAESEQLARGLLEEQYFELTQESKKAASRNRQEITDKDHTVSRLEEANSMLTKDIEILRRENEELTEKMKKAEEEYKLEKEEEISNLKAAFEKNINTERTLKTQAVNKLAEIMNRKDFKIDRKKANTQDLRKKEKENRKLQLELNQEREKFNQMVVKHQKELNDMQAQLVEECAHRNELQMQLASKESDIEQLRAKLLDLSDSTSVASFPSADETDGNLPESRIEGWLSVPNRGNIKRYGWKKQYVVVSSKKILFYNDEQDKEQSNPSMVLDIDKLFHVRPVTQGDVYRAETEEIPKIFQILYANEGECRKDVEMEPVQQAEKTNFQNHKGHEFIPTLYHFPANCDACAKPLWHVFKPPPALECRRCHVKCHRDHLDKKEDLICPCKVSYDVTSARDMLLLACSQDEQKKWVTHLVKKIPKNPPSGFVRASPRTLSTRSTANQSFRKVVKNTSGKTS
Assay: Inhibition of ROCK1 expressed in Escherichia coli or baculovirus-infected insect cells at 400 uM by IMAP assay
Outcome: MET for inhibition of at least 10%; NOT MET for anything lower.

Worked examples follow.
| chemicalSmiles | categoryLabel |
| --- | --- |
| O=C(Nc1ccccc1)Nc1ccccc1 | NOT MET |
| O=C(Nc1ccccc1)Nc1cccc(C(F)(F)F)c1 | NOT MET |
| Nc1ccc2ncc(-c3ccccc3)n2n1 | MET |
| c1ccc(Nc2ccccc2)cc1 | NOT MET |

Lab note: next compound to report on.
Check this compound for inhibition at or above 10%: Nc1[nH]cnc2ncnc1-2
MET

* * *

Exercise: for every item that follows, state its recorded inhibition.
Target: Serine/threonine-protein kinase PAK 2 (Homo sapiens)
Experiment: Inhibition of PAK2 expressed in Escherichia coli or baculovirus-infected insect cells at 400 uM by IMAP assay
One number for each entry, in %.

Example compounds with recorded inhibition:
| chemicalSmiles | targetSystem | units | experimentalValue |
| --- | --- | --- | --- |
| Cc1ccc(C(=O)NC2CC2)cc1F | Serine/threonine-protein kinase PAK 2 (Homo sapiens) | % | 2 |
| Nc1[nH]cnc2ncnc1-2 | Serine/threonine-protein kinase PAK 2 (Homo sapiens) | % | 36 |
| Nc1[nH]nc2ccccc12 | Serine/threonine-protein kinase PAK 2 (Homo sapiens) | % | 16 |
| c1cnc2[nH]ccc2c1 | Serine/threonine-protein kinase PAK 2 (Homo sapiens) | % | 4 |
| Nc1ncccc1OCc1ccccc1 | Serine/threonine-protein kinase PAK 2 (Homo sapiens) | % | 17 |
| c1n[nH]c2c1CCCC2 | Serine/threonine-protein kinase PAK 2 (Homo sapiens) | % | 3 |
| c1ccc(Nc2ncccn2)cc1 | Serine/threonine-protein kinase PAK 2 (Homo sapiens) | % | 3 |
| Nc1n[nH]c2ncccc12 | Serine/threonine-protein kinase PAK 2 (Homo sapiens) | % | 7 |

For each of the compounds below, note its inhibition.
1. c1ccc(-c2cnc3nccnn23)cc1
2. Cc1ccc(NC(=O)Nc2cccc(C(F)(F)F)c2)cc1
3. Cc1ccc(NC(=O)Nc2cc(C(C)(C)C)nn2-c2ccccc2)cc1
4. CC(C)(C)c1cc(NC(=O)Nc2ccccc2)no1
5. O=C(Nc1ccccc1)Nc1cccc(C(F)(F)F)c1

1: 0; 2: 0; 3: 0; 4: 0; 5: 5

Dear reader, for each entry below, please note its inhibition.
1. c1ccc2[nH]ncc2c1
2. c1ccc(Nc2ccccc2)cc1
3. Nc1ccc2ncc(-c3ccccc3)n2n1
4. O=C(Nc1ccccc1)Nc1ccccc1

5
4
32
5

Values were extracted from ChEMBL document CHEMBL1817560.
